Property: MIC; scope: individual molecules
- Tested on: Fusobacterium necrogenes
- Assay Remarks: Agar dilution MIC
- Type: cell-based
- Settings: Fusobacterium necrogenes isolate
Hi! Could you send only the number? It should be in µg/mL, unit omitted.

| Molecule | MIC / µg/mL |
| --- | --- |
| COc1c(N2C[C@@H]3CCCN[C@@H]3C2)c(F)cc2c(=O)c(C(=O)O)cn(C3CC3)c12 [Moxifloxacin] | 1 |
| CCC[C@@H]1C[C@@H](C(=O)N[C@@H]([C@H]2O[C@H](SC)[C@H](O)[C@@H](O)[C@H]2O)[C@H](C)Cl)N(C)C1 [Clindamycin] | 0.03 |
| Cc1ncc([N+](=O)[O-])n1CCO [Metronidazole] | 0.25 |
| CC1(C)S[C@@H]2[C@H](NC(=O)[C@H](N)c3ccc(O)cc3)C(=O)N2[C@H]1C(=O)O [Amox] | 0.5 |
| COc1c(N2CCNC(C)C2)c(F)cc2c(=O)c(C(=O)O)cn(C3CC3)c12 (stereo not drawn) [Gatifloxacin] | 0.5 |
| CC(=O)NC[C@H]1CN(c2ccc(N3CCOCC3)c(F)c2)C(=O)O1 [Linezolid] | 0.5 |

Now turn to the next molecule.
Enquiry: Fill blank: measured MIC of the molecule C[C@@H](O)[C@H]1C(=O)N2C(C(=O)O)=C(SCCN=CN)C[C@H]12 [Imipenem] is ____.
Return: 0.25
